# experiment_summary: Drug concentration in ddY mouse plasma at 30 mg/kg, po measured after 3 hrs by LC-MS/MS analysis
# Assay type: ADME, organism-based
measured_parameter: concentration at 3 h (µM)
Answer in µM, number only, no unit symbol.

Consider the reported concentration at 3 h for these molecules:
# get_value(readout='concentration at 3 h', item= "CCNC(=O)c1ccc(-c2c(C)nc3c(OCc4ccccc4F)cccn23)cn1.Cl" )
2.7

Now this one: "CCNC(=O)c1ccc(-c2c(C)nc3c(OCc4ccc(-c5ccccc5)cc4)cccn23)cn1.Cl"
10

Would you kindly look at the next entry?
Name the recorded concentration at 3 h for "CCNC(=O)c1ccc(-c2c(C)nc3c(OCc4cccc(-c5ccccc5)c4)cccn23)cn1.Cl" .
6.6
